The measured values listed here are drawn from ChEMBL document CHEMBL1153061.

Task for the reader: assign each of the following molecules its reported IC50.
# Test target: Metabotropic glutamate receptor 1 (Rattus norvegicus, UniProt P23385)
# Sequence (P23385 whole entry): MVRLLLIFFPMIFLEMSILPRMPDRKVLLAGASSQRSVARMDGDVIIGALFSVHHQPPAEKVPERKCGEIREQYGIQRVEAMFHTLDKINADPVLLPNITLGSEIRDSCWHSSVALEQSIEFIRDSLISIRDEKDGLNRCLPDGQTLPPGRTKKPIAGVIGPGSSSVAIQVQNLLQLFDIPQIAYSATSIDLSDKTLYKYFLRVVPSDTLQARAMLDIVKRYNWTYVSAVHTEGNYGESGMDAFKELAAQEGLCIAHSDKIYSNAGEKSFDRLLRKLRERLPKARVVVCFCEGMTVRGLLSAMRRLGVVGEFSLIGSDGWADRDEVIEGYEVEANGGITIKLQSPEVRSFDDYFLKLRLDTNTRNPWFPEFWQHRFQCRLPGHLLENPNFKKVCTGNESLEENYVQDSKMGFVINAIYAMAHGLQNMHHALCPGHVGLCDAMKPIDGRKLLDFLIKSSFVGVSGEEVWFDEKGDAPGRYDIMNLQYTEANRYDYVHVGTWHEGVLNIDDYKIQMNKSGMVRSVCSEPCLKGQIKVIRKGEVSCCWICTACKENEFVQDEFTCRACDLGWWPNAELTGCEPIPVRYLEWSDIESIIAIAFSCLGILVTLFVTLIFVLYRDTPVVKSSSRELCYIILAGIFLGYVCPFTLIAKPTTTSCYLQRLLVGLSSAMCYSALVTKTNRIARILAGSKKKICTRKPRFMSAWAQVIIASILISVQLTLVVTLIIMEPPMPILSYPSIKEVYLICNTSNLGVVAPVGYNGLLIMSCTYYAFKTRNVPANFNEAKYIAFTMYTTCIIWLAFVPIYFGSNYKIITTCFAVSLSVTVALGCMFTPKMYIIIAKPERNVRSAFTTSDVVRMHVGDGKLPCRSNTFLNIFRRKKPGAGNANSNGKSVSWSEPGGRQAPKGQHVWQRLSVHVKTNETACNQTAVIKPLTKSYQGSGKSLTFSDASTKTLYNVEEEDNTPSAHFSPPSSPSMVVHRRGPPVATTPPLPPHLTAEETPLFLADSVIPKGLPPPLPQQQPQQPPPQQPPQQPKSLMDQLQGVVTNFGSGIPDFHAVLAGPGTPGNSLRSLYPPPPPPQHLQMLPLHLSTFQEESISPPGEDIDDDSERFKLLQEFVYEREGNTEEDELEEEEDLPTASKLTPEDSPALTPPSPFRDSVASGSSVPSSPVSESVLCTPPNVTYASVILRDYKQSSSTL
# Method: Allosteric antagonist activity at mGluR1 in Sprague-Dawley rat cerebellar granule cells assessed as accumulation of [3H]inositol phosphate by liquid scintillation counting

Molecule: Cc1ccc2cc(/C=C/C(=O)c3c(C)coc3C)c(Cl)nc2c1
IC50: > 40 µM

Molecule: CC(=O)c1ccc(OC(=O)c2ccc(-c3ccccc3)cc2)cc1
IC50: > 40 µM

Molecule: Cc1ccc2nc(Cl)c(/C=C/C(=O)c3ccccc3)cc2c1
IC50: 1.7 µM

Molecule: O=c1cc(-c2ccccc2)c2ccc(OCc3cccc(Oc4ccccc4)c3)cc2o1
IC50: > 40 µM

Molecule: COc1ccc(C(=O)/C=C/c2ccc(OC3CSC3)cc2)cc1
IC50: > 40 µM

State the recorded IC50 for every item in the following list.
1. CCCCCc1ccc(-c2ccc(OC(=O)C3CCC(CC)CC3)cc2)nc1 (stereo not drawn)
2. CC(Oc1ccc2c(c1)oc(=O)c1ccccc12)c1ccccc1 (stereo not drawn)
3. CCCCCCc1cc2c3c(c(=O)oc2cc1OC)CCC3
4. O=C(c1ccc(Cl)cc1)c1ccc2c(c1)CCCCO2
5. O=C(c1ccccc1)c1ccc(/N=C/c2ccc(Br)cc2)cc1

Reply text:
["22.5 µM", "> 40 µM", "23.9 µM", "> 40 µM", "> 40 µM"]
